Biological target: T1, recombinant human ASM protein (human, UniProt P17405 47-630)
T1 construct: Recombinant human ASM in solution; also called acid sphingomyelinase (ASM) protein
T1 sequence: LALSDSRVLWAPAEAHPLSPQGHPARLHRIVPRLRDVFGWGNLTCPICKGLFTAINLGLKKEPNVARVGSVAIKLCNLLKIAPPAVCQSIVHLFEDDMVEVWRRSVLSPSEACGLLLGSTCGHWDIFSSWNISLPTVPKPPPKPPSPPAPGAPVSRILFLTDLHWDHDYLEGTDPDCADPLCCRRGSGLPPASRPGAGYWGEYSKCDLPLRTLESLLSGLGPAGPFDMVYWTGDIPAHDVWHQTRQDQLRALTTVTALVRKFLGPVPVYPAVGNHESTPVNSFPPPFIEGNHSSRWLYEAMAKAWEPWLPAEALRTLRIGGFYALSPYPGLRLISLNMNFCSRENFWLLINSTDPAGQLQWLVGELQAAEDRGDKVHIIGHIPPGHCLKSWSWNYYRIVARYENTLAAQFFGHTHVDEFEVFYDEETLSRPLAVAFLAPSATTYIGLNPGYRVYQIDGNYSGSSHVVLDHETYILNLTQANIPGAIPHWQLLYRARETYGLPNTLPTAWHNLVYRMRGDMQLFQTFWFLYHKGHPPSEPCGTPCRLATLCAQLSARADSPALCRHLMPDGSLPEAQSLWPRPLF
Experiment: BLI (Octet), antibody on AHC sensor
Overview of recorded koff for various binders

[
  {
    "BINDER": "#9104a-D7 (antibody, human IgG4 S228P, lambda, V domains shown, VH of #9104v-H31 with VL of #9104v-L64; full-length IgG, lambda) VH: EVQLLESGGGLVQPGGSLRLSCAASGFTFSNYYMSWVRQAPGKGLEWVSGVYYGSGTPYYADSVKGRFTISRDNSKNTLYLQMNSLRAEDTAVYYCARDTPGFDYWGQGTLVTVSS VL: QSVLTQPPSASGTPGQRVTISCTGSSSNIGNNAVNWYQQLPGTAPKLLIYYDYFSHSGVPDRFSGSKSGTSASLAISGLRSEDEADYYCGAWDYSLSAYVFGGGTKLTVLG",
    "koff": "5.69e-05 s⁻¹"
  },
  {
    "BINDER": "#9104 (antibody, V domains shown, Parental antibody; also called antibody #9104) VH: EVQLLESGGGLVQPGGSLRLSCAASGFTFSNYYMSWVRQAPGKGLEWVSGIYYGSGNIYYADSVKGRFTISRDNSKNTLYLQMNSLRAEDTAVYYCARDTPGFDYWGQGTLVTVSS VL: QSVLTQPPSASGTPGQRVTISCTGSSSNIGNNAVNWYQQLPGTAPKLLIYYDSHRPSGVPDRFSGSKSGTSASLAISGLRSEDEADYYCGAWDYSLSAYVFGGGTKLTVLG",
    "koff": "0.000855 s⁻¹"
  },
  {
    "BINDER": "#9104a-C2 (antibody, human IgG4 S228P, lambda, V domains shown, VH of #9104v-H11 with VL of #9104v-L23; full-length IgG, lambda) VH: EVQLLESGGGLVQPGGSLRLSCAASGFTFSNYYMSWVRQAPGKGLEWVSGIYYGSGIPYYADSVKERFTISRDNSKNTLYLQMNSLRAEDTAVYYCARDTPGFDYWGQGTLVTVSS VL: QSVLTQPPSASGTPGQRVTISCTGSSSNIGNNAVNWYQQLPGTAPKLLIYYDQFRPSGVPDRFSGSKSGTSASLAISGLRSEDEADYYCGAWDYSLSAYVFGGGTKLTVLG",
    "koff": "5.28e-05 s⁻¹"
  }
]
